- EXPERIMENTAL TARGET: Gamma-butyrobetaine dioxygenase (Homo sapiens, UniProt O75936)
- Sequence (O75936 whole entry): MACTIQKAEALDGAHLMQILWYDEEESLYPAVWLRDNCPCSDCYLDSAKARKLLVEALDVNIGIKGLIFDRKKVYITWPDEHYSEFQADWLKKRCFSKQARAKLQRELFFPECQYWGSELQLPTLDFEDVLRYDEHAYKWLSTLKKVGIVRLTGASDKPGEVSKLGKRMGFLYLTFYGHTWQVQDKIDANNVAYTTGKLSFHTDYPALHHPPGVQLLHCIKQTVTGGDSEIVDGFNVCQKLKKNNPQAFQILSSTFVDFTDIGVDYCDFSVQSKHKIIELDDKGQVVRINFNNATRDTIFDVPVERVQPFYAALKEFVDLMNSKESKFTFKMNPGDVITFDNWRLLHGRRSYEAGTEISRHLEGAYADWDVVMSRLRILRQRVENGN
- RUN DESCRIPTION: Inhibition of human recombinant BBOX expressed in Saccharomyces cerevisiae AH22 assessed as formation of carnitine from gamma-butyrobetaine preincubated for 15 mins measured after 30 mins by UPLC-MS/MS analysis
PROPERTY: pIC50
Lab note: report pIC50 as minus log10 of the concentration in molar units, number only.

Solved cases (5 shown):
CC[N+](C)(C)N(C)CCC(=O)[O-] | 5.14
C=C[N+](C)(C)CCCC(=O)[O-] | 3.90
C[N+](C)(C)CCCP(=O)(O)O | 7.00
C[N+](C)(CCCC(=O)[O-])C1CC1 | 5.68
CC[N+](C)(C)CCCC(=O)[O-] | 5.48

Could you now look at the following compound, please?
Given the compound C[N+](C)(CCCl)CCCC(=O)O , what is its reported pIC50?
6.59

* * *

Collected IC50 values appear next to each entry.
- EXPERIMENTAL TARGET: Gamma-butyrobetaine dioxygenase (Homo sapiens, UniProt O75936)
- RUN DESCRIPTION: Inhibition of human recombinant BBOX expressed in Saccharomyces cerevisiae AH22 assessed as formation of carnitine from gamma-butyrobetaine preincubated for 15 mins measured after 30 mins by UPLC-MS/MS analysis
// note: answer is a bare numeric in µM

Completed entries (count: 2):
CC(C)[N+](C)(C)CCCC(=O)[O-] | 5.7
CC[N+](C)(C)NCCC(=O)[O-] | 140

As a next step, examine the compound that follows.
Bench note: what IC50 did CC[N+](C)(C)CCCS(=O)(=O)[O-] [ETHYL DIMETHYL AMMONIO PROPANE SULFONATE] show?
6.7

* * *

- EXPERIMENTAL TARGET: Gamma-butyrobetaine dioxygenase (Homo sapiens, UniProt O75936)
- RUN DESCRIPTION: Inhibition of human recombinant BBOX expressed in Saccharomyces cerevisiae AH22 assessed as formation of carnitine from gamma-butyrobetaine preincubated for 15 mins measured after 30 mins by UPLC-MS/MS analysis
PROPERTY: log10 of IC50 (log10 of the value in µM)
Log10 applied to IC50; unit prior to transform: µM.

Sample answers from the record:
C[N+](C)(C)C/C=C/C(=O)[O-] | 0.58
C[N+](C)(CCO)CCCC(=O)[O-] | 3.00

Reported log10 of IC50 for Gamma-butyrobetaine dioxygenase (Homo sapiens, UniProt O75936), given CC(CCC(=O)[O-])[N+](C)(C)C (centres undefined) ?
2.54
